The measurements presented in this section are drawn from patent US20040147788A1.

- assayed_system: Estrogen Receptors extracted from MCF-7 cells (Homo sapiens, UniProt P03372)
- Construct: Estrogen Receptors extracted from MCF-7 cells; endogenous in cells; host or cells: MCF-7 (ATCC) cytosol
- Sequence (P03372 1-595): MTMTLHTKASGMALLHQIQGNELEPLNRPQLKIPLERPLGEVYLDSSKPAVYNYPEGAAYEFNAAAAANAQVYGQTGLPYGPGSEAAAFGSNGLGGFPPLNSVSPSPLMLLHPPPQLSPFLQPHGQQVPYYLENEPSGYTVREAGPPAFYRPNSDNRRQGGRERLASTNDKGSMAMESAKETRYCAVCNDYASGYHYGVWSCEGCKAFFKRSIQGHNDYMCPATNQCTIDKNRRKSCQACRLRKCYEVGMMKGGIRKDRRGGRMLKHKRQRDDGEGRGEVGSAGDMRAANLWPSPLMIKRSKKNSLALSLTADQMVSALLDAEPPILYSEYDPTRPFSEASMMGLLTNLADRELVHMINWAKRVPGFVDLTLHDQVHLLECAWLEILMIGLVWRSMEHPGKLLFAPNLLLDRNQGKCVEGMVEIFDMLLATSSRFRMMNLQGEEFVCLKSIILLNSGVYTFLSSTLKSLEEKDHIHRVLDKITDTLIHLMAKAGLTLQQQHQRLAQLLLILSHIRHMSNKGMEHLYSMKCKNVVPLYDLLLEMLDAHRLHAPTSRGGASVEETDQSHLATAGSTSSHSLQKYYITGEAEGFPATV
- assay_text: Ligand binding competition assay (Estrogen Receptor), [3H]Estradiol
- cond: cis-stilbenes
recorded_endpoint: ER RBA (relative binding affinity)

[[record]]
compound = "CCCCOc1ccc(/C=C\\c2cc(OC)cc(OC)c2)cc1 [Compound 5h]"
recorded_endpoint = "ER RBA (relative binding affinity)"
readout_value = "N.M"

[[record]]
compound = "FC(F)(F)c1ccc(/C=C\\c2cc(C(F)(F)F)cc(C(F)(F)F)c2)cc1 [Compound 5e]"
recorded_endpoint = "ER RBA (relative binding affinity)"
readout_value = "N.M"

[[record]]
compound = "CCOc1ccc(/C=C\\c2cc(OC)cc(OC)c2)cc1 [Compound 5g]"
recorded_endpoint = "ER RBA (relative binding affinity)"
readout_value = "N.M"

[[record]]
compound = "Fc1ccc(/C=C\\c2cc(F)cc(F)c2)cc1 [Compound 5d]"
recorded_endpoint = "ER RBA (relative binding affinity)"
readout_value = "N.M"


Lab note: next compound to report on.
Problem: Tell me ER RBA (relative binding affinity) reported for Clc1ccc(/C=C\c2cc(Cl)cc(Cl)c2)cc1 [Compound 5b]
Solution: N.M

###

# reported melting point; entries follow

Example results:
[[record]]
chemical_string = "CCCCOc1ccc(/C=C/c2cc(OC)cc(OC)c2)cc1"
readout_value = "54 to 56 °C"

[[record]]
chemical_string = "COc1ccc(/C=C/c2cc(F)cc(F)c2)cc1"
readout_value = "108 to 110 °C"

[[record]]
chemical_string = "COc1ccc(/C=C/c2cc(Cl)cc(Cl)c2)cc1"
readout_value = "62 to 64 °C"


Problem: Quote melting point reported for FC(F)(F)c1ccc(/C=C/c2cc(C(F)(F)F)cc(C(F)(F)F)c2)cc1 please.
Solution: 99 to 100 °C

Problem: Could you please provide reported melting point for FC(F)(F)c1ccc(/C=C/c2cc(Cl)cc(Cl)c2)cc1 ? Thanks!
Solution: 98 to 100 °C

Problem: Please supply the value of reported melting point for the item CCOc1ccc(/C=C/c2cc(OC)cc(OC)c2)cc1
Solution: 54 to 55 °C
